experiment: in vivo; conditions: male, CD-1, mouse, in vivo, iv, 2 mg/kg
quantity kind: Vd (L/kg)
Give bare numbers, in L/kg.

[ask] Can you look up the measured Vd of "COc1ccc2c(O[C@H]3CCN4C(=O)N(C)CCCC/C=C\[C@@H]5C[C@@]5(C(=O)NS(=O)(=O)C5(C)CC5)NC(=O)[C@@H]4C3)cc(-c3nc(C(F)(F)F)cs3)nc2c1C" for me?
[reply] 4.4

----------
Target: human UGT1A1 (Homo sapiens, UniProt P22309)
Sequence (P22309 26-533): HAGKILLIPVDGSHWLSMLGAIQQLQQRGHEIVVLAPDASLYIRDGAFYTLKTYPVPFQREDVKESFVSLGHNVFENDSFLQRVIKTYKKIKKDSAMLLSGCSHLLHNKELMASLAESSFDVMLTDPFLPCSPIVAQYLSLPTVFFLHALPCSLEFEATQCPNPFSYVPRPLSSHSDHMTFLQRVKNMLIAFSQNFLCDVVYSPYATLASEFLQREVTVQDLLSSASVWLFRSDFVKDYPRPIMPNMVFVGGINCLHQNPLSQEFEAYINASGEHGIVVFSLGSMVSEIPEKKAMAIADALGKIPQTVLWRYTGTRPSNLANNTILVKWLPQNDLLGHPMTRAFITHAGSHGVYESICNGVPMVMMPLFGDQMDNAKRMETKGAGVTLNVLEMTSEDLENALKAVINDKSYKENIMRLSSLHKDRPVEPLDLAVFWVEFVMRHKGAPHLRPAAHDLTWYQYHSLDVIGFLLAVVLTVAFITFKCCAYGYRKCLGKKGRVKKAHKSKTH
pIC50: −log10 of the molar value.
quantity kind: pIC50

[ask] Query pIC50 on human UGT1A1 (Homo sapiens, UniProt P22309) for "COc1ccc2c(O[C@H]3CCN4C(=O)N(C)CCCC/C=C\[C@@H]5C[C@@]5(C(=O)NS(=O)(=O)C5(C)CC5)NC(=O)[C@@H]4C3)cc(-c3nc(C(F)(F)F)cs3)nc2c1C"
[reply] ≤ 5.00

----------
experiment: in vivo; conditions: male, CD-1, mouse, in vivo, iv, 2 mg/kg
quantity kind: half-life (h)
Answers are plain numbers, in h.

[ask] // returns reported half-life for input "COc1ccc2c(O[C@H]3CCN4C(=O)N(C)CCCC/C=C\[C@@H]5C[C@@]5(C(=O)NS(=O)(=O)C5(C)CC5)NC(=O)[C@@H]4C3)cc(-c3nc(C(F)(F)F)cs3)nc2c1C"
[reply] 6.3

----------
test: clinical; settings: human, in vivo, 100 mg, AUC0-∞, single dose 100 mg, human volunteers
quantity kind: AUC(0-inf) (ng·h/mL)
Numbers only, in ng·h/mL.

[ask] Field request: AUC(0-inf) | item: "COc1ccc2c(O[C@H]3CCN4C(=O)N(C)CCCC/C=C\[C@@H]5C[C@@]5(C(=O)NS(=O)(=O)C5(C)CC5)NC(=O)[C@@H]4C3)cc(-c3nc(C(F)(F)F)cs3)nc2c1C"
[reply] 3540

----------
assay: clinical; details: human, in vivo, 400 mg, Cmax, single dose 400 mg Fasted, human volunteers
quantity kind: Cmax (ng/mL)
Numbers only, in ng/mL.

[ask] Look up Cmax for this compound: COc1ccc2c(O[C@H]3CCN4C(=O)N(C)CCCC/C=C\[C@@H]5C[C@@]5(C(=O)NS(=O)(=O)C5(C)CC5)NC(=O)[C@@H]4C3)cc(-c3nc(C(F)(F)F)cs3)nc2c1C [Compound 52]
[reply] 368
